assayed_system: T1, Cyno IL-6R (cynomolgus monkey, UniProt A0A2K5WN54 60-396)
T1 construct: also called cynomolgus monkey IL-6R; recombinant cyno sIL-6R
T1 sequence: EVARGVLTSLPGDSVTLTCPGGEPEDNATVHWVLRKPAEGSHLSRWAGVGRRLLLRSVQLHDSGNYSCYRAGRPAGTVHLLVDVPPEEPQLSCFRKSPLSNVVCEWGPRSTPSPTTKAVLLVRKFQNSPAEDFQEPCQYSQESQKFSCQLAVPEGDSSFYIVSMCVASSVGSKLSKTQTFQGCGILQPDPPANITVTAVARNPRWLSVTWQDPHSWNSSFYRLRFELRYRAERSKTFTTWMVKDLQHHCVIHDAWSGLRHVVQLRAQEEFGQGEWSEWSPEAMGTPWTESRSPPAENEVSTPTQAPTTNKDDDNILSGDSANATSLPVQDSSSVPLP
measurement_description: SPR Biacore 3000, cyno IL-6R amine-coupled to CM5
quantity_kind: kon
Write your answer as a measured quantity: the number, then the unit.

Observe how each entry below is paired with its result.
binder | quantity_kind | test_value
IL6R65 (VHH, also called ILR65; parent Nanobody) VHH: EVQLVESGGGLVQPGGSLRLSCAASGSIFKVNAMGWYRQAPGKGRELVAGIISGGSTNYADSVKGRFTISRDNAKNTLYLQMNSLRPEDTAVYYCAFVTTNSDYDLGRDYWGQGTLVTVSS | kon | 165000 M⁻¹ s⁻¹
IL6R04 (VHH, also called PMP32C9; not shown: C-terminal c-myc and (His)6 tags) VHH: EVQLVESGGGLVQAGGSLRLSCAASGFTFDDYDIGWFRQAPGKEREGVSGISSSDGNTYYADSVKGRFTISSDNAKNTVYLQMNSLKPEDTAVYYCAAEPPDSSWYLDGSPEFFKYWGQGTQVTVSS | kon | 58600 M⁻¹ s⁻¹

So for IL6R201 (VHH, also called tagless version of IL6R75; 16R201/75) VHH: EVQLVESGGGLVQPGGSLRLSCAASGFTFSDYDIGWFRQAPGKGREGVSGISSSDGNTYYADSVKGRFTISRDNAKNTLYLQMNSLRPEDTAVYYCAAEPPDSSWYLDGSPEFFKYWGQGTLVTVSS , the logged kon turned out to be 218000 M⁻¹ s⁻¹

So for IL6R03 (VHH, also called PMP31A4; not shown: C-terminal c-myc and (His)6 tags) VHH: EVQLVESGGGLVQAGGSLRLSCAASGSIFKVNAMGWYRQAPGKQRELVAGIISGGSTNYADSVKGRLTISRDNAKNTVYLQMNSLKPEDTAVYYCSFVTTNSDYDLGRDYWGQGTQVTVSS , the logged kon turned out to be 370000 M⁻¹ s⁻¹
